Target: Peroxisome proliferator-activated receptor delta (Mus musculus)
Sequence (whole entry): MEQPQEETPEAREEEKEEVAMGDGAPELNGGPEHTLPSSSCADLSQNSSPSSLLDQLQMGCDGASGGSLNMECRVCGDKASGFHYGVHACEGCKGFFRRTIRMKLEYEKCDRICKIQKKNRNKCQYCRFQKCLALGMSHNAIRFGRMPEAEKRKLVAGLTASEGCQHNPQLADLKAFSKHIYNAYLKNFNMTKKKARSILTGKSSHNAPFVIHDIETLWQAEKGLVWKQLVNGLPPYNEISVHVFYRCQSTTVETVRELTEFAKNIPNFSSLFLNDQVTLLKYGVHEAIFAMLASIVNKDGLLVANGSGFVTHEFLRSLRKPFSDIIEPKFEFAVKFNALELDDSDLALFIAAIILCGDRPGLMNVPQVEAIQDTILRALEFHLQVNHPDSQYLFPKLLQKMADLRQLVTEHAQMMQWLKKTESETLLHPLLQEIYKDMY
Experiment: Agonist activity at mouse PPARdelta expressed in CV1 cells co-expressing tk-PPRE-luciferase vector assessed as transient transactivation at 20 uM after 24 hrs by luciferase reporter gene transactivation assay relative to GW0742
Type: functional, cell-based
Details: CV-1
Active and inactive are the calls of the source. The rule behind the calls is not given here.
testReadout: Activity

querySmiles	testReadout	result
CN(CCCOc1ccc2c(c1)c(CC(=O)O)cn2Cc1ccc(F)cc1)c1nc2ccccc2o1	Activity	inactive
CCn1c(C(=O)O)cc2ccc(OCCN(C)c3nc4ccccc4o3)cc21	Activity	inactive
CN(CCOc1ccc2cc(C(=O)O)[nH]c2c1)c1nc2ccccc2s1	Activity	14.6%
CCn1c(C(=O)O)cc2ccc(OCCN(C)c3nc4ccccc4s3)cc21	Activity	68.8%
CN(CCOc1ccc2cc(C(=O)O)n(Cc3ccccc3)c2c1)c1nc2ccccc2o1	Activity	33.4%
CN(CCOc1ccc2c(c1)c(CC(=O)O)cn2C)c1nc2ccccc2o1	Activity	inactive
CN(CCOc1ccc2[nH]cc(CC(=O)O)c2c1)c1nc2ccccc2o1	Activity	inactive
CN(CCOc1ccc2cc(C(=O)O)[nH]c2c1)c1nc2ccccc2o1	Activity	inactive
CN(CCCOc1ccc2[nH]cc(CC(=O)O)c2c1)c1nc2ccccc2o1	Activity	inactive
CN(CCOc1ccc2cc(C(=O)O)n(C)c2c1)c1nc2ccccc2o1	Activity	inactive
COC(=O)Cc1cn(Cc2ccc(F)cc2)c2ccc(OCCCN(C)c3nc4ccccc4o3)cc12	Activity	inactive
CN(CCCOc1ccc2c(c1)c(CC(=O)O)cn2CC(=O)O)c1nc2ccccc2o1	Activity	inactive
